TARGET OR SYSTEM: T1, human CD4 on the surface of SKW3 cells or human PBMCs (human, UniProt P01730 26-458)
T1 construct: whole, on cells; SKW3 CD4 knockout cells served as the negative cell line; also called hCD4; SKW3 WT
ASSAY METHOD TEXT: FACS binning on SKW3 cells; competitor RPA-T4-PE-Dazzle 594 (its signal read); background 783, max binding 15000
PARAMETER MEASURED: RPA-T4-PE-Dazzle 594 signal
Give bare numbers.

Give me RPA-T4-PE-Dazzle 594 signal for each of these binders, listed below.
1. 75110_04P08A (antibody, V domains shown, Tested here as non-clonal hybridoma supernatant from AlivaMab Mouse Kappa mice (detected with anti-mouse Fc and anti-human kappa)) VH: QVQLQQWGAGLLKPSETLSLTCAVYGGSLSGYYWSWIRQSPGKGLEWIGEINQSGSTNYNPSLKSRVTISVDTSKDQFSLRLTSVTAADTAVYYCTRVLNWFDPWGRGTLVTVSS VL: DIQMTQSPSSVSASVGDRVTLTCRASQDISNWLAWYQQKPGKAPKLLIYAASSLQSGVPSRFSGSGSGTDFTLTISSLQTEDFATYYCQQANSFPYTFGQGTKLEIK
2. 75110_12H19A (antibody, V domains shown, Tested here as non-clonal hybridoma supernatant from AlivaMab Mouse Kappa mice (detected with anti-mouse Fc and anti-human kappa)) VH: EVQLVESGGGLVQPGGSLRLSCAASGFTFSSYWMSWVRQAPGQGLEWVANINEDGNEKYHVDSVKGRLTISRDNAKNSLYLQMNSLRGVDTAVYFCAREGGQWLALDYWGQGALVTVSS VL: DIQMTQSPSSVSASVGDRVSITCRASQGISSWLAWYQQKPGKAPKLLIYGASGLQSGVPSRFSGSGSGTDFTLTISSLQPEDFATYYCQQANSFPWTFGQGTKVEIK
3. 75110_07H07A (antibody, V domains shown, Tested here as non-clonal hybridoma supernatant from AlivaMab Mouse Kappa mice (detected with anti-mouse Fc and anti-human kappa)) VH: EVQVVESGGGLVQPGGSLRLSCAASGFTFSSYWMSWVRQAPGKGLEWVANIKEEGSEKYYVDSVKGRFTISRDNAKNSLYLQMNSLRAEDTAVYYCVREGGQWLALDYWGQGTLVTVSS VL: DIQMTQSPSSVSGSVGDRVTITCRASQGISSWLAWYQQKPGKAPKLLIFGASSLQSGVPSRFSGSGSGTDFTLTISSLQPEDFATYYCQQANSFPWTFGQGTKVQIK
4. 75110_02E08A (antibody, V domains shown, Tested here as non-clonal hybridoma supernatant from AlivaMab Mouse Kappa mice (detected with anti-mouse Fc and anti-human kappa)) VH: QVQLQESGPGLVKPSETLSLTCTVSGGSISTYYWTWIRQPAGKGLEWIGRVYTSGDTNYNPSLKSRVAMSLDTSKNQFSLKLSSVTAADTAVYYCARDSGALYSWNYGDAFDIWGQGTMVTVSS VL: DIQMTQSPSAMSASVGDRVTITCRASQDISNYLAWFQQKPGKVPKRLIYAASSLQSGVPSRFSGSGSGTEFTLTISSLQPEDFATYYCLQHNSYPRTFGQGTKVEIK
5. 75110_12H17A (antibody, V domains shown, Tested here as non-clonal hybridoma supernatant from AlivaMab Mouse Kappa mice (detected with anti-mouse Fc and anti-human kappa)) VH: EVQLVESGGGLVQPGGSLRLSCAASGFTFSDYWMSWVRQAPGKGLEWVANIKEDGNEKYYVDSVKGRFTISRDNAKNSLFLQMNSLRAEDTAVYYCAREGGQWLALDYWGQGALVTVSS VL: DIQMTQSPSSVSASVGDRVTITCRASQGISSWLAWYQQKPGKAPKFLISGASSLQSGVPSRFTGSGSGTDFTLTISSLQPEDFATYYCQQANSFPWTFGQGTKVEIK
6. 75110_03D16A (antibody, V domains shown, Tested here as non-clonal hybridoma supernatant from AlivaMab Mouse Kappa mice (detected with anti-mouse Fc and anti-human kappa)) VH: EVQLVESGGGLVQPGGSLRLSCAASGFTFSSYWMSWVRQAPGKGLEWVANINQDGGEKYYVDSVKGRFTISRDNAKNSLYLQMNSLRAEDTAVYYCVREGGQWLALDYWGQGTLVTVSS VL: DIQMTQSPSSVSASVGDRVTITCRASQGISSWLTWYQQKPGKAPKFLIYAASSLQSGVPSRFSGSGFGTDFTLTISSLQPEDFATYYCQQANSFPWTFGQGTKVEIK

Response:
19900
14600
14900
13500
14800
12300
